Hey, just so you know, these numbers are from patent US20110105397A1.

Assay: in vivo
Conditions: mongrel, dog, iv, 2.2 ng/kg/min, [SEQ ID NO: 1] plasma concentration
ASSAY ENDPOINT: level at time molar at 1 h (nM)
Report the value in nM with no unit label.

Form field level at time molar at 1 h, entry H-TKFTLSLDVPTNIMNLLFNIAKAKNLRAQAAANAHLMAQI-NH2 [SEQ ID NO: 1] : 0.0324

---

Experiment: Nonclinical pharmacokinetics in dogs
Parameters: species or system dog
Conditions: male, dog, in vivo, iv, t1/2 alpha
ASSAY ENDPOINT: half-life
Answers without a unit are incomplete; give the number and then its unit.

Form field half-life, entry H-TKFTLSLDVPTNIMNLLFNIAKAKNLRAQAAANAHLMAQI-NH2 [SEQ ID NO: 1] : 15.9 min

---

Assay: Nonclinical pharmacokinetics in cynomolgus monkeys
Settings: female, cynomolgus monkey, in vivo; cyno IV infusion 3 hours, F, 16.7 ng/kg/min
ASSAY ENDPOINT: AUC(0-inf)

Form field AUC(0-inf), entry H-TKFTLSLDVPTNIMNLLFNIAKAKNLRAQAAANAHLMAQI-NH2 [SEQ ID NO: 1] : 1.31 ng·h/mL

---

Experiment: Human pharmacokinetics, healthy subjects, 7.5-hour continuous ascending dose IV infusion
Type: in vivo
Conditions: human, in vivo, healthy subjects, infusion rate 54/72/108 ng/kg/min, median, N = 2
ASSAY ENDPOINT: Tmax (h)
Report the value in h with no unit label.

Form field Tmax, entry H-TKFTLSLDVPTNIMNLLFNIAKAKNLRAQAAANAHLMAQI-NH2 [SEQ ID NO: 1] : 6.99
